Reference for the values: patent US9849193B2

- assay_notes: Heat-induced release of drug surrogate (alcohol 11 or amine 12) from linkers in methanol, HPLC quantification
- Assay type: physicochemical
- condition_description: release of alcohol 11; methanol ca. 0.01 M, 55° C., 3 h; mean ± SD, n = 3
# label = 1 if % release after heating (55° C.) at time (h) 3 < 30% else -1

Known results for molecules:
| given_smiles | answer_label |
| --- | --- |
| C=CCNCCC(C)(C)CCC(=O)OCCc1c2ccccc2cc2ccccc12 | 1 |
| C=CCNCCCCC(=O)OCCc1c2ccccc2cc2ccccc12 | -1 |
| C=CCNCCCOC(=O)OCCc1c2ccccc2cc2ccccc12 | 1 |
| C=CCNCCOC(=O)OCCc1c2ccccc2cc2ccccc12 | -1 |
| C=CCNCCCCCC(=O)OCCc1c2ccccc2cc2ccccc12 | 1 |
| C=CCNCCC(C)(C)COC(=O)OCCc1c2ccccc2cc2ccccc12 | 1 |

Next up:
Could you please tell me whether % release after heating (55° C.) at time (h) 3 recorded for "C=CCNCCCC(=O)OCCc1c2ccccc2cc2ccccc12" is less than 30%? -1
